Tested on: NCI-H226 lung
test-summary: NCI-60 one-dose screen, 48 h (100 = growth as untreated, 0 = no growth, -100 = all killed)
particulars: 10 µM unless noted
Procedure: Growth inhibition of the NCI-H226 human Non-Small Cell Lung tumor cell line is measured as a screen for anti-cancer activity. Cells are grown in 96 well plates and exposed to the test compound for 48 hours. Compounds are tested at a single concentration, which is 10^-5 M for most compounds. The reported endpoint is percent growth (GI% or GIPRCNT), where numbers from 0 - 100% represent growth inhibition, and numbers from -100% - 0 represent cell death. […]
About 83,000 compounds went through this panel and 20% of them were active in at least one assay; those are over-represented in the sample as a whole.
reported-endpoint: growth (%)
Only the number, expressed in %, is required.

Measured on NCI-H226 lung, N=C(c1ccccc1)N(Cc1ccccc1)Cc1ccccc1 has a documented growth of 104

Measured on NCI-H226 lung, O=C(Oc1ccccc1)c1ccccc1Cl has a documented growth of 106

Measured on NCI-H226 lung, O=C(/C=C/c1cccc(O)c1)c1cccc(-n2cc(-c3ccc(Cl)cc3)[nH]c2=O)c1 has a documented growth of -48.7

Measured on NCI-H226 lung, CC(C)OC(=O)c1ccc2n1CCCc1cnc(Nc3ccccc3)nc1-2 has a documented growth of 84.4

Measured on NCI-H226 lung, CCOC(=O)c1cc(C(=O)c2ccc(Br)cc2)n2cc(C)cc(C)c12 has a documented growth of 87.2

Measured on NCI-H226 lung, CC(C)OC(=O)[C@H](C)N[P@@](=O)(OC[C@@]1(C)O[C@@H](n2cc(F)c(N)nc2=O)C[C@@H]1O[P@](=O)(N[C@@H](C)C(=O)OC(C)C)Oc1ccccc1)Oc1ccccc1 has a documented growth of 96.4

Measured on NCI-H226 lung, COC(=O)c1cc(O)c2cc3c(cc2c1-c1cc(OC)c(OC)c(OC)c1)OCO3 has a documented growth of 50.6

Measured on NCI-H226 lung, CN1NC(c2ccccc2)NN(C)C1=O has a documented growth of 102

Measured on NCI-H226 lung, COC(=O)C(Cc1cnc[nH]1)N1CC(=O)N2[C@@H](c3ccccc3)SC[C@H]2C1=O (stereo partly drawn) has a documented growth of 143

Measured on NCI-H226 lung, CCCNC(=O)Oc1ccc(/C(=C(/C)Cc2ccc(OC)cc2)c2ccc(OCCN3CCCC3)cc2)cc1 has a documented growth of 90.7

Measured on NCI-H226 lung, CCCCCCCCCCCCOC(=N)N(C)C has a documented growth of 96.2

Measured on NCI-H226 lung, O=S(=O)(O)CCI has a documented growth of 95.9

Measured on NCI-H226 lung, Cc1ccc2c(c1)C(=O)CCS2 has a documented growth of 101

###

Tested on: NCI-H460 lung
test-summary: NCI-60 one-dose screen, 48 h (100 = growth as untreated, 0 = no growth, -100 = all killed)
particulars: 10 µM unless noted
This is part of a sample that, as a whole, favours compounds with a hit. Of some 83,000 tested, about 20% had one in any assay.
// reported growth for each item listed
Only the number, expressed in %, is required.

Solved cases below.
> print(dat)
                                   compound  experimental.result
1     Cc1cc2cn3c4ccc(O)cc4[nH]c(=O)c3c2cc1C                -81.9
2    N=C(N)c1ccc(-c2ccc(-c3ccc(Cl)cc3)s2)s1                -66.2
3  Nc1nc(-c2cccc(Br)c2)cc(-c2cc3ccccc3oc2=O)n1                  103
4       O=CN/N=C/c1ccc(Cl)c([N+](=O)[O-])c1                 8.54
5              CC(=O)Nc1ccc(S(=O)(=O)Cl)cc1                  102
6  NNC(=S)N1N=C(c2cc3ccccc3o2)CC1c1c[nH]c2ccccc12 (stereo unspecified)                 24.7

In plain terms, Cc1c(C(N)=O)sc2c1c(=O)n(Cc1ccccc1)c1nnc(S(C)(=O)=O)n21 has a documented growth of 91.3

In plain terms, Cc1nc(NC(=S)Nc2ccc(F)cc2)sc1C(=O)NNC(=S)Nc1ccc(F)cc1 has a documented growth of 70.2

In plain terms, Oc1ccccc1\C=N/N=C/C=C/c1ccccc1 has a documented growth of 99

In plain terms, COc1cc(-c2nn(-c3ccc(NC(=O)c4ccc(Cl)c(Cl)c4)cc3)cc2-c2ccncc2)ccc1Cl has a documented growth of 48.3

In plain terms, C=CCNCCC#N has a documented growth of 111

In plain terms, COc1ccc2c(c1)/C(=C/c1c(-c3cc(OC)c(OC)c(OC)c3)nc3sccn13)C(=O)N2 has a documented growth of 108

In plain terms, O=C(NCCNCCO)c1cc([N+](=O)[O-])cc([N+](=O)[O-])c1O has a documented growth of 104

In plain terms, CCOC(=O)/C(C#N)=C(/CC)OCC has a documented growth of 110

In plain terms, O=[N+]([O-])c1ccc(-c2ncc(-c3ccc(O)cc3O)[nH]2)cc1 has a documented growth of 109

In plain terms, O=C(N/N=C/c1cc(Cl)ccc1O)C(=O)N/N=C/c1cc(Cl)ccc1O has a documented growth of 34.8

In plain terms, CCCCCCCCCCCCCCCCCC(=O)Nc1ccc(O)cc1 has a documented growth of 100
